target: mGluR5 receptor (Sus scrofa, UniProt I3LUI7); construct: 450 μg of protein from brain homogenate with 5 nM ^3[H]-MPEP; from tissue; host or cells: pig brain halves without medulla, cerebellum and pons; assay: [3H]-MPEP mGluR5 receptor binding assay (pig brain homogenate); details: 10 μM compound, 5 nM [3H]-MPEP, read-out: % Inhibition of mGluR5 Receptor (pig) [^3H]-MPEP Bond at 10 μM
Sequence (I3LUI7 19-1212): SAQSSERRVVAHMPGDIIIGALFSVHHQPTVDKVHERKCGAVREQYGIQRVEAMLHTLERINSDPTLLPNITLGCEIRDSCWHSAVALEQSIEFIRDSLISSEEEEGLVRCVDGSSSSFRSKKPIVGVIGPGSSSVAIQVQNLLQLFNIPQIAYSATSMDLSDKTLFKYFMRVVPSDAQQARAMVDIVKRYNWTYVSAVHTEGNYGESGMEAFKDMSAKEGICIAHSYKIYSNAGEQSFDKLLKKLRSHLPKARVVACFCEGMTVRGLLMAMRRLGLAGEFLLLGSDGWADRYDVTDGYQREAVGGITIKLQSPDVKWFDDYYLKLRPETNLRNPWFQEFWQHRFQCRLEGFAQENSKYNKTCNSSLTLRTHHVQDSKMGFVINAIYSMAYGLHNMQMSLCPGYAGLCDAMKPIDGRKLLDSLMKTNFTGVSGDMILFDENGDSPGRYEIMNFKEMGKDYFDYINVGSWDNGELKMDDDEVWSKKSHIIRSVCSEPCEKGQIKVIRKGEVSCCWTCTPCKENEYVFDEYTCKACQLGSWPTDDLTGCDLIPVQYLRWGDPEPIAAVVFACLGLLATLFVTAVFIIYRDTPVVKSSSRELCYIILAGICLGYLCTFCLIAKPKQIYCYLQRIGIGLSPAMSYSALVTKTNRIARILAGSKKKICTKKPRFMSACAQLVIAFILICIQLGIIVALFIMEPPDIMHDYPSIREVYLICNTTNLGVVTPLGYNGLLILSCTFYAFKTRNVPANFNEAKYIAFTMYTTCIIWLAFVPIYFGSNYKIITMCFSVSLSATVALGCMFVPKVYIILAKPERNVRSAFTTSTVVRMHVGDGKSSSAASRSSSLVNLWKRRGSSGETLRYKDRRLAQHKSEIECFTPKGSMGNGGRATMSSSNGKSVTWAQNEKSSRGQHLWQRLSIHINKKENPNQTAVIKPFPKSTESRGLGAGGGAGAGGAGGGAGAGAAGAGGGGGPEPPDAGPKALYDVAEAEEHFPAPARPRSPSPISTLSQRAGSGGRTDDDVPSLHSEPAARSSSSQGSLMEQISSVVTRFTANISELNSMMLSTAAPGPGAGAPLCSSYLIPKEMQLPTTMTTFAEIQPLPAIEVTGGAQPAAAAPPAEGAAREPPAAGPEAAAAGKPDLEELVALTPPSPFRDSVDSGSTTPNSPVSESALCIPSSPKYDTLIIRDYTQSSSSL
READOUT: inhibition at 10 µM (%)

a = CC(=O)N(Cc1ccc(F)c(-c2ccc3ncnc(NC4CC4)c3c2)c1)C1CC1
b = Cc1cc2ncnc(NC3CC3)c2cc1-c1cccc(CN(C2CC2)S(=O)(=O)Cc2ccccc2)c1
Data request: Just curious, which one has the larger inhibition at 10 µM reading, a or b ? Reply briefly: the label of your chosen item.
Data returned: a
(a: 78%, b: 51%)

a = Cc1cc2ncnc(NC3CC3)c2cc1-c1cccc(CN(C(=O)Cc2ccccc2)C2CC2)c1
b = CS(=O)(=O)N(Cc1cncc(-c2ccc3ncnc(NC4CC4)c3c2)c1)C1CC1
Data request: Could you check which of a and b has a smaller value for inhibition at 10 µM? Reply briefly: the label of your chosen item.
Data returned: b
(b: 41%, a: 89%)

I = COCC(=O)N(Cc1cc(-c2ccc3ncnc(NC(C)(C)C)c3c2)ccc1F)C1CC1
II = O=C1CCC(=O)N1Cc1cccc(-c2ccc3nc(NCc4ccccc4)nc(NC4CC4)c3c2)c1
Data request: Could you check which of I and II has a smaller value for inhibition at 10 µM? Reply briefly: the label of your chosen item.
Data returned: II

P = CC(=O)N(Cc1cc(-c2ccc3ncnc(NC4CC4)c3c2)ccn1)C1CC1
Q = CC(C)Nc1ncnc2ccc(-c3cccc(CN(Cc4ccccc4)C(=O)c4cnccn4)c3)cc12
Data request: Just curious, which one has the larger inhibition at 10 µM reading, P or Q ? Reply briefly: the label of your chosen item.
Data returned: P
